- experimental-target: T1, human Nectin-4 extracellular antigen hNectin-4-His (human, UniProt Q96NY8 32-349)
- T1 construct: C-terminal 8xHis tag included
- T1 sequence: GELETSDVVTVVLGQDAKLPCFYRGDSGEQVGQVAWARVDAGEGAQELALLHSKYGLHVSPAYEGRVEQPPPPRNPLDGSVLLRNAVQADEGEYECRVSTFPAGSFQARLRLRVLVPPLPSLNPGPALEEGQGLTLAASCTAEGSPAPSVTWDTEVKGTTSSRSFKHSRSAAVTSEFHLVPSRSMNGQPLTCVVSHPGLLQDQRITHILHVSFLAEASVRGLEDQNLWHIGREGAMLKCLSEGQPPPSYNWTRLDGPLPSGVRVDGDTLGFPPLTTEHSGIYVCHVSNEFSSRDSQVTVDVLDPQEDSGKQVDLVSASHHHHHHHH
- experimental-details: ELISA, phage scFv supernatant 1:50
readout-name: OD value (OD)
Could you give me the number in OD? Just the number is fine.

binder: 1G8-1G5 scFv (scFv, V domains shown, phage clone supernatant) VH: EVQLVESGGGLVQPGGSLRLSCAASGYNFTTSAMSWVRQAPGKGLEWVSRIYADTAYNDYADSVKGRFTISRDNSKNTLYLQMNSLRAEDTAVYYCARQTEDRSYGYDLDYWGQGTLVTVSS VL: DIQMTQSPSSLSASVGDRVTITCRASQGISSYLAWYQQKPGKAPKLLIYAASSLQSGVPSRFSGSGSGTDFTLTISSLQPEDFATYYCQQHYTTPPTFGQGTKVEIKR
unit-name: OD
OD value: 1.48

Shifting focus to the binder that follows.
Entry 10F4-1A1 scFv (scFv, V domains shown, phage clone supernatant) VH: EVQLVESGGGLVQPGGSLRLSCAASGFSFDNYDMSWVRQAPGKGLEWVSSIKPGSAYKFYADSVKGRFTISRDNSKNTLYLQMNSLRAEDTAVYYCAREYSDVVDYVSVRTPLDYWGQGTLVTVSS VL: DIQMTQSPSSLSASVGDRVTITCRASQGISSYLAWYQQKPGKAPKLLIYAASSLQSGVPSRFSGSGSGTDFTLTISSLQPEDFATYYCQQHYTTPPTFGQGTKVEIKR : reported OD value = ?
1.69
